Test system: HeLa Kyoto
Assay: thermal stability score vs G1/S (z-score of summed log2 fold changes over temperatures); higher = more thermally stable than in G1/S
Settings: cell cycle stage: early G1 (4.5 h after nocodazole release)
measured endpoint: thermal stability score
Answers are plain numbers.

MNAARTGYRVFSANSTAACTELAKRITERLGAELGKSVVYQETNGETRVEIKESVRGQDIFIIQTIPRDVNTAVMELLIMAYALKTACARNIIGVIPYFPYSKQSKMRKRGSIVCKLLASMLAKAGLTHIITMDLHQKEIQGFFSFPVDNLRASPFLLQYIQEEIPNYRNAVIVAKSPDAAKRAQSYAERLRLGLAVIHGEAQCTELDMDDGRHSPPMVKNATVHPGLELPLMMAKEKPPITVVGDVGGRIAIIVDDIIDDVESFVAAAEILKERGAYKIYVMATHGILSAEAPRLIEESSVDEVVVTNTVPHEVQKLQCPKIKTVDISLILSEAIRRIHNGESMAYLFRNITVDD [PRPSAP1]    -0.299
MAAAGAFRLRRAASALLLRSPRLPARELSAPARLYHKKVVDHYENPRNVGSLDKTSKNVGTGLVGAPACGDVMKLQIQVDEKGKIVDARFKTFGCGSAIASSSLATEWVKGKTVEEALTIKNTDIAKELCLPPVKLHCSMLAEDAIKAALADYKLKQEPKKGEAEKK [ISCU]    -1.67
MAKQKRKVPEVTEKKNKKLKKASAEGPLLGPEAAPSGEGAGSKGEAVLRPGLDAEPELSPEEQRVLERKLKKERKKEERQRLREAGLVAQHPPARRSGAELALDYLCRWAQKHKNWRFQKTRQTWLLLHMYDSDKVPDEHFSTLLAYLEGLQGRARELTVQKAEALMRELDEEGSDPPLPGRAQRIRQVLQLLS [C7ORF50]    0.0776
MAASGKLSTCRLPPLPTIREIIKLLRLQAAKQLSQNFLLDLRLTDKIVRKAGNLTNAYVYEVGPGPGGITRSILNADVAELLVVEKDTRFIPGLQMLSDAAPGKLRIVHGDVLTFKVEKAFSESLKRPWEDDPPNVHIIGNLPFSVSTPLIIKWLENISCRDGPFVYGRTQMTLTFQKEVAERLAANTGSKQRSRLSVMAQYLCNVRHIFTIPGQAFVPKPEVDVGVVHFTPLIQPKIEQPFKLVEKVVQNVFQFRRKYCHRGLRMLFPEAQRLESTGRLLELADIDPTLRPRQLSISHFKSLCDVYRKMCDEDPQLFAYNFREELKRRKSKNEEKEEDDAENYRL [TFB1M]    0.388

Report thermal stability score for MGKSDFLTPKAIANRIKSKGLQKLRWYCQMCQKQCRDENGFKCHCMSESHQRQLLLASENPQQFMDYFSEEFRNDFLELLRRRFGTKRVHNNIVYNEYISHREHIHMNATQWETLTDFTKWLGREGLCKVDETPKGWYIQYIDRDPETIRRQLELEKKKKQDLDDEEKTAKFIEEQVRRGLEGKEQEVPTFTELSRENDEEKVTFNLSKGACSSSGATSSKSSTLGPSALKTIGSSASVKRKESSQSSTQSKEKKKKKSALDEIMEIEEEKKRTARTDYWLQPEIIVKIITKKLGEKYHKKKAIVKEVIDKYTAVVKMIDSGDKLKLDQTHLETVIPAPGKRILVLNGGYRGNEGTLESINEKTFSATIVIETGPLKGRRVEGIQYEDISKLA [KIN] please. 0.727

---

Test system: HeLa Kyoto
Assay: melting temperature (median over replicates), in situ; higher = more thermally stable
Settings: cell cycle stage: G1/S
measured endpoint: melting temperature (°C)
One number for each entry, in °C.

# batch: return melting temperature for each of the 7 sequences below
1. MENGAVYSPTTEEDPGPARGPRSGLAAYFFMGRLPLLRRVLKGLQLLLSLLAFICEEVVSQCTLCGGLYFFEFVSCSAFLLSLLILIVYCTPFYERVDTTKVKSSDFYITLGTGCVFLLASIIFVSTHDRTSAEIAAIVFGFIASFMFLLDFITMLYEKRQESQLRKPENTTRAEALTEPLNA [CMTM6]
2. MADEELEALRRQRLAELQAKHGDPGDAAQQEAKHREAEMRNSILAQVLDQSARARLSNLALVKPEKTKAVENYLIQMARYGQLSEKVSEQGLIEILKKVSQQTEKTTTVKFNRRKVMDSDEDDDY [PDCD5]
3. MAAAGAFRLRRAASALLLRSPRLPARELSAPARLYHKKVVDHYENPRNVGSLDKTSKNVGTGLVGAPACGDVMKLQIQVDEKGKIVDARFKTFGCGSAIASSSLATEWVKGKTVEEALTIKNTDIAKELCLPPVKLHCSMLAEDAIKAALADYKLKQEPKKGEAEKK [ISCU]
4. MRRAGLGEGVPPGNYGNYGYANSGYSACEEENERLTESLRSKVTAIKSLSIEIGHEVKTQNKLLAEMDSQFDSTTGFLGKTMGKLKILSRGSQTKLLCYMMLFSLFVFFIIYWIIKLR [BET1]
5. MAAAALGQIWARKLLSVPWLLCGPRRYASSSFKAADLQLEMTQKPHKKPGPGEPLVFGKTFTDHMLMVEWNDKGWGQPRIQPFQNLTLHPASSSLHYSLQLFEGMKAFKGKDQQVRLFRPWLNMDRMLRSAMRLCLPSFDKLELLECIRRLIEVDKDWVPDAAGTSLYVRPVLIGNEPSLGVSQPTRALLFVILCPVGAYFPGGSVTPVSLLADPAFIRAWVGGVGNYKLGGNYGPTVLVQQEALKRGCEQVLWLYGPDHQLTEVGTMNIFVYWTHEDGVLELVTPPLNGVILPGVVRQSLLDMAQTWGEFRVVERTITMKQLLRALEEGRVREVFGSGTACQVCPVHRILYKDRNLHIPTMENGPELILRFQKELKEIQYGIRAHEWMFPV [BCAT2]
6. MSEKSVEAAAELSAKDLKEKKEKVEEKASRKERKKEVVEEEENGAEEEEEETAEDGEEEDEGEEEDEEEEEEDDEGPALKRAAEEEDEADPKRQKTENGASA [PTMS]
7. MEELLRRELGCSSVRATGHSGGGCISQGRSYDTDQGRVFVKVNPKAEARRMFEGEMASLTAILKTNTVKVPKPIKVLDAPGGGSVLVMEHMDMRHLSSHAAKLGAQLADLHLDNKKLGEMRLKEAGTVGRGGGQEERPFVARFGFDVVTCCGYLPQVNDWQEDWVVFYARQRIQPQMDMVEKESGDREALQLWSALQLKIPDLFRDLEIIPALLHGDLWGGNVAEDSSGPVIFDPASFYGHSEYELAIAGMFGGFSSSFYSAYHGKIPKAPGFEKRLQLYQLFHYLNHWNHFGSGYRGSSLNIMRNLVK [FN3KRP]

55.6
54.3
53.3
54.7
55.4
55.5
61.1

---

Record form. Attribute: melting temperature. Fill in for each entry.
Tested on: HeLa Kyoto
Experiment: melting temperature (median over replicates), in situ; higher = more thermally stable
Details: cell cycle stage: mitosis
Numbers only, in °C.

Observe how each entry below is paired with its result.
MSLTSSSSVRVEWIAAVTIAAGTAAIGYLAYKRFYVKDHRNKAMINLHIQKDNPKIVHAFDMEDLGDKAVYCRCWRSKKFPFCDGAHTKHNEETGDNVGPLIIKKKET [CISD1]    55.3
MISLTDTQKIGMGLTGFGVFFLFFGMILFFDKALLAIGNVLFVAGLAFVIGLERTFRFFFQKHKMKATGFFLGGVFVVLIGWPLIGMIFEIYGFFLLFRGFFPVVVGFIRRVPVLGSLLNLPGIRSFVDKVGESNNMV [GOLT1B]    54.6
MGRTSKDKRDVYYRLAKENGWRARSAFKLLQLDKEFQLFQGVTRAVDLCAAPGSWSQVLSQKIGGQGSGHVVAVDLQAMAPLPGVVQIQGDITQLSTAKEIIQHFKGCPADLVVCDGAPDVTGLHDVDEYMQAQLLLAALNIATHVLKPGGCFVAKIFRGRDVTLLYSQLQVFFSSVLCAKPRSSRNSSIEAFAVCQGYDPPEGFIPDLSKPLLDHSYDPDFNQLDGPTRIIVPFVTCGDLSSYDSDRSYPLDLEGGSEYKYTPPTQPPISPPYQEACTLKRKGQLAKEIRPQDCPISRVDTFPQPLAAPQCHTLLAPEMEDNEMSCSP [FTSJ1]    50.5

Report melting temperature for "RALGAPB" tested on HeLa Kyoto. 51

---

System: HeLa Kyoto
Assay: thermal stability score vs G1/S (z-score of summed log2 fold changes over temperatures); higher = more thermally stable than in G1/S
Conditions: cell cycle stage: mitosis
Record form. Attribute: thermal stability score. Fill in for each entry.
Numbers only.

Observe how each entry below is paired with its result.
MSVTLHTDVGDIKIEVFCERTPKTCENFLALCASNYYNGCIFHRNIKGFMVQTGDPTGTGRGGNSIWGKKFEDEYSEYLKHNVRGVVSMANNGPNTNGSQFFITYGKQPHLDMKYTVFGKVIDGLETLDELEKLPVNEKTYRPLNDVHIKDITIHANPFAQ [PPIL3]    1.31
MPFPFGKSHKSPADIVKNLKESMAVLEKQDISDKKAEKATEEVSKNLVAMKEILYGTNEKEPQTEAVAQLAQELYNSGLLSTLVADLQLIDFEGKKDVAQIFNNILRRQIGTRTPTVEYICTQQNILFMLLKGYESPEIALNCGIMLRECIRHEPLAKIILWSEQFYDFFRYVEMSTFDIASDAFATFKDLLTRHKLLSAEFLEQHYDRFFSEYEKLLHSENYVTKRQSLKLLGELLLDRHNFTIMTKYISKPENLKLMMNLLRDKSRNIQFEAFHVFKVFVANPNKTQPILDILLKNQAKLIEFLSKFQNDRTEDEQFNDEKTYLVKQIRDLKRPAQQEA [CAB39]    2.14
MSYDRAITVFSPDGHLFQVEYAQEAVKKGSTAVGVRGRDIVVLGVEKKSVAKLQDERTVRKICALDDNVCMAFAGLTADARIVINRARVECQSHRLTVEDPVTVEYITRYIASLKQRYTQSNGRRPFGISALIVGFDFDGTPRLYQTDPSGTYHAWKANAIGRGAKSVREFLEKNYTDEAIETDDLTIKLVIKALLEVVQSGGKNIELAVMRRDQSLKILNPEEIEKYVAEIEKEKEENEKKKQKKAS [PSMA7]    -2.15
MASKCPKCDKTVYFAEKVSSLGKDWHKFCLKCERCSKTLTPGGHAEHDGKPFCHKPCYATLFGPKGVNIGGAGSYIYEKPLAEGPQVTGPIEVPAARAEERKASGPPKGPSRASSVTTFTGEPNTCPRCSKKVYFAEKVTSLGKDWHRPCLRCERCGKTLTPGGHAEHDGQPYCHKPCYGILFGPKGVNTGAVGSYIYDRDPEGKVQP [CRIP2]    -3.7
MPNIKIFSGSSHQDLSQKIADRLGLELGKVVTKKFSNQETCVEIGESVRGEDVYIVQSGCGEINDNLMELLIMINACKIASASRVTAVIPCFPYARQDKKDKSRAPISAKLVANMLSVAGADHIITMDLHASQIQGFFDIPVDNLYAEPAVLKWIRENISEWRNCTIVSPDAGGAKRVTSIADRLNVDFALIHKERKKANEVDRMVLVGDVKDRVAILVDDMADTCGTICHAADKLLSAGATRVYAILTHGIFSGPAISRINNACFEAVVVTNTIPQEDKMKHCSKIQVIDISMILAEAIRRTHNGESVSYLFSHVPL [PRPS1]    0.473

Continue with the sequence presented below.
Report thermal stability score for MAASGPGCRSWCLCPEVPSATFFTALLSLLVSGPRLFLLQQPLAPSGLTLKSEALRNWQVYRLVTYIFVYENPISLLCGAIIIWRFAGNFERTVGTVRHCFFTVIFAIFSAIIFLSFEAVSSLSKLGEVEDARGFTPVAFAMLGVTTVRSRMRRALVFGMVVPSVLVPWLLLGASWLIPQTSFLSNVCGLSIGLAYGLTYCYSIDLSERVALKLDQTFPFSLMRRISVFKYVSGSSAERRAAQSRKLNPVPGSYPTQSCHPHLSPSHPVSQTQHASGQKLASWPSCTPGHMPTLPPYQPASGLCYVQNHFGPNPTSSSVYPASAGTSLGIQPPTPVNSPGTVYSGALGTPGAAGSKESSRVPMP [RHBDD2] please. -1.48
